The origin of these recorded values is patent US11981658B2.

# system-name: EGFR Del19/T790M/C797S (Homo sapiens, UniProt P00533, C797S/DEL746-750/T790M)
# Sequence (P00533 with tags, fused parts or gaps DEL746-750/T790M/C797S): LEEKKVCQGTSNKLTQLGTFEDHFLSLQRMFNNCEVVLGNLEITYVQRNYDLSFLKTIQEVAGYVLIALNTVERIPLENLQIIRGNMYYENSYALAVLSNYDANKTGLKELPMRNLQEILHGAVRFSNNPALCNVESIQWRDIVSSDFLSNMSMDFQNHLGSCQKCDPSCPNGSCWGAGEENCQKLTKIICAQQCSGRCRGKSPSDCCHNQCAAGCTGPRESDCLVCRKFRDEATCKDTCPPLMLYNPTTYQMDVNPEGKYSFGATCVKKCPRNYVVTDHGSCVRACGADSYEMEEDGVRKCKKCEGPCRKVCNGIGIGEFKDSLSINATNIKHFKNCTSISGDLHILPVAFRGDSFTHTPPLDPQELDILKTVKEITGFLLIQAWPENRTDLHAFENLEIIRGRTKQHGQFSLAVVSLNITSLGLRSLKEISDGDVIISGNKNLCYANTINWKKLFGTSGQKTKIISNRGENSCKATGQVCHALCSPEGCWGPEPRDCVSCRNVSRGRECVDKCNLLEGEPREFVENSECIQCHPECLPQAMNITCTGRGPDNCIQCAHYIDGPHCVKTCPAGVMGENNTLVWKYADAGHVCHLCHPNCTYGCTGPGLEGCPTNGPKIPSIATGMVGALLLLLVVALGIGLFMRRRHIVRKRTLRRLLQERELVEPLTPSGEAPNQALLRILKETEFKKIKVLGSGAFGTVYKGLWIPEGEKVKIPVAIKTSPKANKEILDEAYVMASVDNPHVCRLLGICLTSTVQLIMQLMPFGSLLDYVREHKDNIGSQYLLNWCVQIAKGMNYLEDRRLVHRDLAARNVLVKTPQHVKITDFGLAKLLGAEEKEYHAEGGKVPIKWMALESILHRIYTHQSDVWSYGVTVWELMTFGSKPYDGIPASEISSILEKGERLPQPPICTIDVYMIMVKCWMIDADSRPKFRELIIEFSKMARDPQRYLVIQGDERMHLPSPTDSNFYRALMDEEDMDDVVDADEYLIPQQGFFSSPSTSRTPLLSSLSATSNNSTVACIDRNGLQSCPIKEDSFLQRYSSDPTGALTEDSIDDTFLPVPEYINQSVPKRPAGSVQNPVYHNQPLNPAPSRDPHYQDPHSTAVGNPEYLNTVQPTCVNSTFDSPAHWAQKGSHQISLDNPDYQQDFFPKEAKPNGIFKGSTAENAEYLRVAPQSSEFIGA
# method-summary: Biochemical EGFR kinase inhibition assay (Lance Ultra TR-FRET), triple mutant del19/T790M/C797S
# protocol-conditions: Km ATP; read-out: IC50 Del19/T790M/C797S (nM), Km ATP
measured-property: IC50 (nM)

1. CC1OCCC1C#Cc1cnc(Nc2ccnc(-c3cnn(S(=O)(=O)C4CC4)c3)n2)cc1NC1CCC(O)CC1 (stereo not drawn) [Example 433]
2. CN1CCN(Cc2ccc(C#Cc3cnc(Nc4ccnc(-c5cnn(S(=O)(=O)C6CC6)c5)n4)cc3N[C@H]3CC[C@@H](CO)CC3)cc2)CC1 [Example 360]
Which numeric IC50 is bigger, that of 1 or that of 2 ? Your answer should be the label of the entry you select.
2
(2: 0.8 nM, 1: 0.4 nM)
